# Test system: SN12C
# assay.name: NCI tumour cell line growth inhibition, 48 h
Calls of active or inactive are those of the source. Rule as the data show it: active = GI50 up to about 1.1 µM and inactive = higher.
attribute.measured: GI50

INPUT: Record request: GI50 value, item COc1ccc(C(OCC2OC(n3cnc4c(=O)n(Cc5ccccc5[N+](=O)[O-])nnc43)C(O)C2O)(c2ccccc2)c2ccc(OC)cc2)cc1 (stereo not drawn)
OUTPUT: 6.9 µM (inactive)

INPUT: Record request: GI50 value, item N=c1oc2ccccc2cc1C(=O)NC12CC3CC(CC(C3)C1)C2
OUTPUT: 28.2 µM (inactive)

INPUT: Record request: GI50 value, item CC1(C)C(/C=N\O)=[N+]([O-])C(C)(C)N1O
OUTPUT: > 100 µM (inactive)

INPUT: Record request: GI50 value, item C#C[C@@]1(O)CCCC2=CC(=O)C[C@]21C
OUTPUT: > 100 µM (inactive)

INPUT: Record request: GI50 value, item O/N=C1/C(=C/c2ccc(Oc3ccccc3)cc2)CCCC1C(NO)c1ccc(Oc2ccccc2)cc1 (stereo not drawn)
OUTPUT: 22.8 µM (inactive)

INPUT: Record request: GI50 value, item Nc1ccn(C2OC(CO)C(O)C2O)c(=O)c1 (stereo not drawn)
OUTPUT: 108 µM (inactive)

INPUT: Record request: GI50 value, item C[N+](CCCl)(CCCl)Cc1cccc2cccc([N+](=O)[O-])c12
OUTPUT: 45.5 µM (inactive)

INPUT: Record request: GI50 value, item Cc1cc2c(CC(=O)O)n[nH]c2c(C(=O)O)c1C
OUTPUT: > 100 µM (inactive)

INPUT: Record request: GI50 value, item O=C1[C@H]2ON(c3ccccc3)C(c3ccc(Cl)cc3)[C@H]2C(=O)N1c1ccc(Cc2ccc(N3C(=O)[C@@H]4ON(c5ccccc5)C(c5ccc(Cl)cc5)[C@@H]4C3=O)cc2)cc1 (stereo partly drawn)
OUTPUT: > 100 µM (inactive)

INPUT: Record request: GI50 value, item O=c1c(C(c2ccc3ccccc3c2)c2c(O)oc3ccccc3c2=O)c(O)oc2ccccc12
OUTPUT: 20.6 µM (inactive)

INPUT: Record request: GI50 value, item CC(C)CC[C@H](O)[C@@H](C)[C@H]1[C@@H](OC2OC(C)C(O)C(O)C2O)C[C@H]2[C@@H]3CC=C4C[C@@H](O)CC[C@]4(C)[C@H]3[C@@H](O)C[C@]12C (stereo partly drawn)
OUTPUT: > 100 µM (inactive)

INPUT: Record request: GI50 value, item C[C@H](N)C(=O)N[C@@H]1[C@H]2C(=C(O)C[C@@H](O)[C@@H]2O)C(=O)O[C@@H]1C
OUTPUT: > 100 µM (inactive)

Source of measurements: ChEMBL document CHEMBL1201862
